Cited source: patent US20160159919A1

Target Or Test System: T1, soluble human EREG fragment having a mature EGF domain structure (R&D Systems cat. no. 1195-EP/CF) (human, UniProt O14944 63-108)
T1 construct: bought; coated on ELISA plates; also called human epiregulin; recombinant human Epiregulin
T1 sequence (O14944 63-108 limits assumed): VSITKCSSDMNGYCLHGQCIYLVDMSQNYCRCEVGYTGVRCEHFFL
Assay Name: competitive ELISA on coated soluble human EREG fragment

Binder	binding result
H87-G1d/L37-k (antibody, human IgG1, kappa, V domains shown) VH: QDQLVQSGAEVKKPGASVKVSCKASGFNIKDTYIQWVRQAPGQGLEWMGRIDPLTGQTKYQEKFEGRVTITADTSTNTAYMELSSLRSEDTAVYYCVRSGTSFDFWGQGTLVTVSS VL: DIQMTQSPSSLSASVGDRVTITCQASQDIHKYIAWYQQKPGQAPRLLIQYTSTLQPGVPSRFSGSGSGTDYTLTISSLQPEDFATYYCLQYDNLRTFGGGTKVEIKR	binds
H43-G1d/LB-k (antibody, human IgG1, kappa, V domains shown) VH: QDQLVQSGAEVKKPGASVKVSCKASGFNIKDTYIQWVRQAPGQGLEWMGRIDPLNGNTKYRPKFQGRVTITADTSTNTAYMELSSLRSEDTAVYYCVRSGTLFDFWGQGTLVTVSS VL: DIQMTQSPSSLSASVGDRVTITCKASQDIHKYIAWYQQKPGQAPRLLIQYTSTLQPGVPSRFSGSGSGTDYTFTISSLQPEDIATYYCLQYDNLRTFGGGTKVEIKR	binds
